- Test system: Isocitrate dehydrogenase [NADP] cytoplasmic (Homo sapiens), O75874 [R132H]
- Sequence (O75874 whole entry R132H): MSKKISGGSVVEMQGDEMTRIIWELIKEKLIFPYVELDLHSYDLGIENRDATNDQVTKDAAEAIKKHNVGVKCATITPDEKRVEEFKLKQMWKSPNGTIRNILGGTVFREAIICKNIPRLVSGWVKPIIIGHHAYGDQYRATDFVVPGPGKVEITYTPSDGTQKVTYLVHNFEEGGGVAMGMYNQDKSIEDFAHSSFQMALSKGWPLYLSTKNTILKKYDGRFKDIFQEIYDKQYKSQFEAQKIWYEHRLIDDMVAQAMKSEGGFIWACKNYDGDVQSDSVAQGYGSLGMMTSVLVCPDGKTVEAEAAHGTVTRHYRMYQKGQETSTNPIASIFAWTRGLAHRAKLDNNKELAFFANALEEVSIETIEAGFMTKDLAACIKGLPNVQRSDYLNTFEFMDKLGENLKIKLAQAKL
- EXPERIMENT_SUMMARY: Inhibition of IDH1 R132H mutant (unknown origin) expressed in HEK293T cells assessed as reduction in D-2-HG levels at 10 uM after 72 hrs relative to control; values are per cent of control
Provide the recorded residual activity for the entries that follow.
Give bare numbers, in %.

Example molecules with recorded residual activity:
COMPOUND	TEST_SYSTEM	QUANTITY_NAME	UNITS_OF_MEASURE	MEASURED
CC(C)[C@H]1COC(=O)N1c1cncc(N[C@@H](C)c2ccc(-c3ccc(F)cc3)cc2)n1	Isocitrate dehydrogenase [NADP] cytoplasmic (Homo sapiens), O75874 [R132H]	residual activity	%	34.3
Cc1noc(C)c1-c1ccc([C@H](C)Nc2cncc(N3C(=O)OC[C@@H]3C(C)C)n2)cc1	Isocitrate dehydrogenase [NADP] cytoplasmic (Homo sapiens), O75874 [R132H]	residual activity	%	47.9

From here, focus on the item given below.
// recorded residual activity for COc1ccccc1-c1ccc([C@H](C)Nc2cncc(N3C(=O)OC[C@@H]3C(C)C)n2)cc1 : 31.9
